test system: Candida albicans; test: Antifungal activity against Candida albicans ATCC 10261 at 35 degC after 48 hrs by broth microdilution test; type: functional; details: Candida albicans, ATCC 10261, 48 h; read-out: MIC90
// returns n unless MIC90 is strictly below 8 µg/mL, in which case y

Lab note: confirm whether the reported MIC90 for this compound is below 8 µg/mL, equality not counting. compound: Clc1ccc(C(CCn2ccnc2)OCc2ccc(Cl)cc2Cl)cc1 (stereo unspecified)
n

For O=[N+]([O-])O.c1ccc(C(OCCn2ccnc2)c2ccccc2)cc1 , is the recorded MIC90 below the cut-off of 8 µg/mL?
n

Take the compound CC(C)(C)c1ccc(OC(CCn2ccnc2)c2ccc(Cl)cc2)cc1 (stereo unspecified) and say whether its MIC90 is less than 8 µg/mL.
n

Could you please tell me whether MIC90 recorded for Clc1ccc(OC(CCn2cncn2)c2ccccc2)c(Cl)c1 (stereo unspecified) is less than 8 µg/mL?
n

Quick check: MIC90 of Clc1ccc(C(CCn2ccnc2)Oc2ccc(Cl)cc2Cl)cc1 (stereo unspecified) under 8 µg/mL?
y

# TODO verify MIC90 < 8 µg/mL strictly for this compound: Clc1ccc(C(OCCn2ccnc2)c2ccccc2)c(Cl)c1.O=[N+]([O-])O (stereo unspecified)
n

Strictly below 8 µg/mL in MIC90? Cc1ccc(OC(CCCn2ccnc2)c2ccc(Cl)cc2)cc1 (stereo unspecified)
y

Is MIC90 strictly under 8 µg/mL for the entry Fc1ccc(C(CCn2ccnc2)Oc2cc(Cl)cc(Cl)c2)cc1 (stereo unspecified) ?
n

Here's an entry: Clc1ccc(COC(Cn2ccnc2)c2ccc(Cl)cc2Cl)c(Cl)c1 (stereo unspecified) . Is its MIC90 below 8 µg/mL?
y

API: query returns whether the compound falls strictly under 8 µg/mL in MIC90. Query: Clc1cccc(Cl)c1OC(CCn1ccnc1)c1ccccc1 (stereo unspecified)
n

----------
system: Candida albicans; assay: Antifungal activity against Candida albicans ATCC 10261 at 35 degC after 48 hrs by broth microdilution test; assay type: functional; conditions: Candida albicans, ATCC 10261, 48 h; read-out: MIC90
Could you please report measured MIC90 for the items listed next?
Return type: number; implicit unit µg/mL.

Consider the compound shown here: Clc1ccc(C(OCCn2ccnc2)c2ccc(Cl)cc2Cl)cc1.O=[N+]([O-])O (centres undefined) What is its recorded MIC90?
64

Tell me the measured MIC90 of Cc1ccc(C(CCn2ccnc2)Oc2ccc(C(C)(C)C)cc2)cc1 (centres undefined) , please.
64

What value of MIC90 has been recorded for this entry: Clc1ccc(C(CCn2ccnc2)Oc2ccccc2)cc1 (centres undefined)
16

What value of MIC90 has been recorded for this entry: Clc1ccc(C(CCn2ccnc2)Oc2cc(Cl)cc(Cl)c2)cc1 (centres undefined)
16

Need MIC90 of Clc1ccc(OC(CCn2ccnc2)c2ccc(Cl)cc2)cc1 (centres undefined) , thanks.
8

What value of measured MIC90 is listed for OC(Cn1cncn1)(Cn1cncn1)c1ccc(F)cc1F [FLUCONAZOLE] ?
64

Look up MIC90: Cc1ccc(C(CCn2ccnc2)Oc2ccc(Cl)cc2Cl)cc1 (centres undefined)
4

Item Cc1ccc(C(CCn2ccnc2)Oc2c(Cl)cccc2Cl)cc1 (centres undefined) has what recorded MIC90?
128

Which measured MIC90 value corresponds to Cc1ccc(OC(CCn2ccnc2)c2ccc(F)cc2)cc1 (centres undefined) ?
8

Field request: MIC90 | item: Clc1ccc(OC(CCn2ccnc2)c2ccccc2)cc1 (centres undefined)
4

Which measured MIC90 value corresponds to CCc1ccc(OC(CCn2ccnc2)c2ccc(C)cc2)cc1 (centres undefined) ?
16

Could you tell me which MIC90 is on file for Cc1ccc(C(CCn2ccnc2)Oc2ccc(Cl)cc2)cc1 (centres undefined) ?
4

# get_value(readout='MIC90', item= Clc1ccc(OC(CCn2ccnc2)c2ccc(Cl)cc2Cl)c(Cl)c1 (centres undefined) )
64

I have this compound here, OC(CCn1ccnc1)(c1ccccc1)c1ccccc1 , and I need its recorded MIC90.
128

Quick check: MIC90 of Fc1ccc(C(CCn2ccnc2)Oc2ccc(Cl)cc2Cl)cc1 (centres undefined) ?
4

Name the reported MIC90 value associated with the compound c1ccc(OC(CCn2ccnc2)c2ccccc2)cc1 (centres undefined)
128

For the compound shown here, CC(C)c1ccc(OC(CCn2ccnc2)c2ccc(Cl)cc2)cc1 (centres undefined) , give the reported MIC90.
32

Item Cc1ccc(OC(CCn2ccnc2)c2ccc(C)cc2)cc1 (centres undefined) has what recorded MIC90?
4

Recorded MIC90 of Fc1ccc(C(CCn2ccnc2)Oc2c(Cl)cccc2Cl)cc1 (centres undefined) , please.
64

State the recorded MIC90 for this entry: Cc1ccc(C(CCn2ccnc2)Oc2ccc(C)cc2Cl)cc1 (centres undefined)
8

Returns the measured MIC90 for the input compound. Input: Clc1ccc(C(CCn2ccnc2)Oc2c(Cl)cccc2Cl)cc1 (centres undefined)
8
